# Tested on: ring stage parasites
# RUN_DESCRIPTION: Parasite growth potency assay, 72 hours, LDH readout
# Format: cell-based
# CONDITION_INFO: 72 h, parasite growth measured by LDH assay after 72 hours at 37° C.; 0.7% rings, 2% haematocrit; read-out: EC50
# Procedure: The parasite stock was maintained at 4% haematocrit in RPMI-Hepes media buffered with sodium bicarbonate and supplemented with 5% heat inactivated human serum and 0.5% albumax. On the day of assay set up, a blood smear of the parasite culture was Giemsa stained and counted. The parasitemia was adjusted to 0.7% rings and the haematocrit was diluted to 2% in RPMI-Hepes media buffered with sodium bicarbonate and supplemented with 5% heat inactivated human serum and 0.5% albumax. […]
Structures can show the parent of a compound that is named as a salt.

COMPOUND	EC50 / nM
CCC1(CC)CC(=O)N([C@H](CCOC)c2cccc(C(=O)NC3CC(C)(C)Oc4ccccc43)c2)C(=N)N1 (stereo in doubt) [Example 72B, trifluoroacetate]	0.3
CCC1(CC)CC(=O)N(Cc2cccc(C(=O)N[C@@H]3c4cc(F)ccc4C[C@H]3O)c2)C(=N)N1 (stereo in doubt) [Example 199, trifluoroacetate]	6.2
C#CCC[C@@H](c1cccc(C(=O)N[C@H]2CC(C)(C)Oc3ccccc32)c1)N1C(=N)N[C@](C)(C(C)C)CC1=O [Example 108B, trifluoroacetate]	23.6

====

# System: ring stage parasites
# RUN_DESCRIPTION: Parasite growth potency assay, 72 hours, LDH readout
# Type: cell-based
# CONDITION_INFO: 72 h, parasite growth measured by LDH assay after 72 hours at 37° C.; 0.7% rings, 2% haematocrit; read-out: EC50
Where a name gives a salt, the structure may show the parent alone.
ENDPOINT: EC50

COMPOUND	ENDPOINT	RESULT
CCC1(CC)CC(=O)N(C(CCOC)c2ccc(C(F)(F)F)c(C(=O)N[C@@H]3c4ccccc4C[C@H]3O)c2)C(=N)N1 (stereo partly drawn)	EC50	3.6 nM
CCC1(CC)CC(=O)N([C@H](CCN2CCCC2)c2cccc(C(=O)N[C@H]3CCOc4ccccc43)c2)C(=N)N1 [Example 58, trifluoroacetate]	EC50	1.3 nM
CCC1(CC)CC(=O)N(Cc2cc(C#N)cc(C(=O)N[C@H]3CC(C)(C)Oc4ccccc43)c2)C(=N)N1 (stereo in doubt) [Example 89B, trifluoroacetate]	EC50	1.6 nM

====

# Tested on: ring stage parasites
# RUN_DESCRIPTION: Parasite growth potency assay, 72 hours, LDH readout
# Assay type: cell-based
# CONDITION_INFO: 72 h, parasite growth measured by LDH assay after 72 hours at 37° C.; 0.7% rings, 2% haematocrit; read-out: EC50
Structures can show the parent of a compound that is named as a salt.
ENDPOINT: log10(EC50) (log10 of the value in nM)

MOLECULE	log10(EC50)
CCC[C@H](c1cncc(C(=O)N[C@@H]2c3ccccc3C[C@H]2O)c1)N1C(=N)NC(CC)(CC)CC1=O [Example 57, trifluoroacetate]	-0.22
CCC[C@@H](c1cc(C(=O)N[C@H]2CCOc3ccccc32)ccn1)N1C(=N)NC(CC)(CC)CC1=O [Example 49B, trifluoroacetate]	1.93
C#CCC[C@H](c1cccc(C(=O)N[C@H]2CC(C)(C)Oc3ccccc32)c1)N1C(=N)NC(CC)(CC)CC1=O [Example 214C]	-0.40
C#CCC[C@H](c1cncc(C(=O)N[C@H]2CC(C)(C)Oc3ccccc32)c1)N1C(=N)N[C@](C)(C(C)C)CC1=O [Example 114A, trifluoroacetate]	-0.52
CCC1(COC)CC(=O)N(Cc2cccc(C(=O)N[C@H]3CC(C)(C)Oc4ccccc43)c2)C(=N)N1 (stereo partly drawn) [Example 98A, trifluoroacetate]	1.19
CCC1(CC)CC(=O)N(C(CCOC)c2ccc(C(F)(F)F)c(C(=O)N[C@@H]3c4ccccc4OC[C@]3(C)O)c2)C(=N)N1 (stereo partly drawn)	0.20
CCC1(CC)CC(=O)N([C@H](CCOC)c2cccc(C(=O)N[C@@H]3c4ccccc4OCC3(C)O)c2)C(=N)N1 (stereo in doubt) [Example 143A]	0.34
CCC1(CC)CC(=O)N([C@H](CCOC)c2cccc(C(=O)N[C@@H]3c4ccccc4C[C@@H]3O)c2)C(=N)N1 [Example 202, trifluoroacetate]	0.72
COCC[C@H](c1cc(F)cc(C(=O)N[C@@H]2c3ccccc3OC(C)(C)[C@H]2O)c1)N1C(=N)NC(C)(C)CC1=O [Example 174, trifluoroacetate]	-0.05
CCC1(CC)CC(=O)N(Cc2cccc(C(=O)N[C@@H]3CCOc4ccc(Cl)cc43)c2)C(=N)N1 [Example 215A]	1.85
CCC1(CC)CC(=O)N([C@H](COCCOC)c2cccc(C(=O)NC3c4ccccc4CC3(C)O)c2)C(=N)N1 (stereo partly drawn) [Example 146A]	0.72
CCC1(CC)CC(=O)N([C@H](COC)c2cccc(C(=O)N[C@H]3CCOc4ccccc43)c2)C(=N)N1 [Example 19, trifluoroacetate]	-0.22
CCC[C@H](c1cccc(C(=O)N[C@@H]2c3ccccc3C[C@H]2O)c1)N1C(=N)N[C@](CC2CC2)(c2ccccc2)CC1=O [Example 69, trifluoroacetate]	1.47
CCC1(CC)CC(=O)N(Cc2cccc(C(=O)N[C@@H]3c4ccccc4OCC3O)c2)C(=N)N1 (single isomer, unassigned) [Example 126A]	1.29
CC[C@H](c1cccc(C(=O)N[C@@H]2c3ccccc3OC(C)(C)[C@H]2O)c1)N1C(=N)NC(CC)(CC)CC1=O [Example 207A, trifluoroacetate]	-0.52
CCC1(CC)CC(=O)N([C@H](CCOC)c2cc(F)cc(C(=O)N[C@@H]3c4ccccc4C[C@H]3O)c2)C(=N)N1 [Example 138, trifluoroacetate]	0.43
CCC1(CC)CC(=O)N([C@@H](c2cccc(C(=O)N[C@H]3CCOc4ccccc43)c2)c2cncs2)C(=N)N1 [Example 85A]	0.00
CCC1(CC)CC(=O)N([C@H](CCOC)c2cccc(C(=O)N[C@@H]3c4cc(F)ccc4C[C@H]3O)c2)C(=N)N1 [Example 170, trifluoroacetate]	-0.15
CCC1(CC)CC(=O)N([C@H](CCOC)c2cc(F)cc(C(=O)N[C@H]3c4ccccc4CC3(C)O)c2)C(=N)N1 (single isomer, unassigned) [Example 144A]	1.91
CCC1(CC)CC(=O)N([C@H](CCOC)c2cccc(C(=O)N[C@@H]3c4ccccc4OC(C)(C)[C@H]3O)c2)C(=N)N1 (stereo in doubt) [Example 128, trifluoroacetate]	0.04
CCC1(CC)CC(=O)N([C@@H](c2cccc(C(=O)N[C@H]3CCOc4ccccc43)c2)C23CC(C2)C3)C(=N)N1 [Example 32, trifluoroacetate]	0.30
CCC1(CC)CC(=O)N([C@H](CCOC)c2cccc(C(=O)N[C@H]3C[C@H](C(F)(F)F)Oc4ccccc43)c2)C(=N)N1 [Example 132B, trifluoroacetate]	-0.05
CC1(C)CC(=O)N(Cc2cccc(C(=O)N[C@H]3CC(C)(C)Oc4ccccc43)c2)C(=N)N1 [Example 198, trifluoroacetate]	1.23
CCC1(CC)CC(=O)N([C@H](C)c2cccc(C(=O)N[C@@H]3c4ccccc4OC(C)(C)[C@@]3(C)O)c2)C(=N)N1	-0.47

Hey, just so you know, these numbers are from patent US12629374B2.
